Tested on: K-562 leukemia
Experiment: NCI tumour cell line growth inhibition, 48 h
property label: TGI (µM)
Provide the reading as a plain figure in µM.

# example entries with known answers
molecule	property label	recorded measurement
CN(CCCCN1CCCC1)CCCCN(C)C(=O)Cc1ccc(Cl)c(Cl)c1	TGI	10.5
CC(NC1=NCCO1)c1cccs1 (configuration not stated)	TGI	59.6
COc1ccccc1-c1ccc2nc(NC(=O)Nc3cc(C(F)(F)F)cc(C(F)(F)F)c3)sc2c1	TGI	8.95

Recall and state the measured TGI for CC(C)(Cl)C(Br)CCC(CBr)=C(Cl)CCl (mixture of isomers) .
3.75

Recall and state the measured TGI for Cc1ccc(/C=N/Nc2cc(C)c3ccccc3n2)s1 .
39.2

Recall and state the measured TGI for CCN1/C(=C/C=C/C=C/c2sc3ccccc3[n+]2CC)Sc2ccccc21 .
0.512

Recall and state the measured TGI for O=C(CCc1ccco1)NC1CCN(CC2(c3ccc(Cl)cc3)CCC2)CC1 .
4.62

Recall and state the measured TGI for COc1ccc2[nH]c3c([N+](=O)[O-])ccc(Cl)c3c(=O)c2c1 .
13.2

Recall and state the measured TGI for CCOC(=O)C1(Br)C(c2ccccc2)NC(=O)N(C2OC(COC(=O)c3ccccc3)C(OC(=O)c3ccccc3)C2OC(=O)c2ccccc2)C1(C)Br (configuration not stated) .
19.3

---

Test system: MOLT-4 leukemia
Assay: NCI tumour cell line growth inhibition, 48 h
log10(TGI) listing for selected molecules.
All values: base-10 log of TGI in µM.

molecule	recorded measurement
C=C(C)C1CC2=C(O1)C(=O)c1ccccc1C2=O (configuration not stated)	1.52

// below: log10(TGI) requested for another molecule
Recall and state the measured log10(TGI) for NC(=O)c1ccc2nc(-c3ccc(C4(N)CCC4)cc3)c(-c3ccccc3)n2n1 .
1.28

---

Tested on: DMS 273 small cell lung
Assay: NCI tumour cell line growth inhibition, 48 h
property label: TGI (µM)
Provide the reading as a plain figure in µM.

> print(dat)
                     smiles.structure  property.label  units.of.measure  recorded.measurement
1  COc1ccc(OC)c(/C=C/C(=O)C(C)(C)C)c1             TGI                µM                  50.9

Recall and state the measured TGI for CCCCCCCCCCCCC/C=C1\C[C@H](O)COC1=O .
28

---

TGI listing for selected compounds.
Test system: OVCAR-5 ovarian
Assay: NCI tumour cell line growth inhibition, 48 h
Provide the reading as a plain figure in µM.

> print(dat)
                                   compound  property.label  recorded.measurement
1  CCN1CCC2(CC1)NC(=O)c1c(c3ccc(Cl)c(Cl)c3n1C)C2C#N (stereo not given)             TGI                  5.79
2  CCN1/C(=C/C=C/C=C/c2sc3ccccc3[n+]2CC)Sc2ccccc21             TGI                  6.05
3  Fc1c[c-]c(-c2ccccn2)c(F)c1.[CH3-].[Pt+2].c1ccc([PH+](c2ccccc2)c2ccccn2)cc1             TGI                  3.63
4  CC(C)=CCc1c(O)ccc2c1OC1c3ccc(O)c(CC=C(C)C)c3OCC21 (stereo not given)             TGI                  27.1
5      CCOC(=O)/C(=C/c1ccccc1)C(=O)c1ccccc1             TGI                  16.9
6       COc1cc2cn3c4ccc(O)cc4nc(N)c3c2cc1OC             TGI                  14.1
7  C[C@H](C(=O)N[C@@H](Cc1ccc(-c2ccccc2)cc1)C(=O)NC1CC(C)(C)N(C)C(C)(C)C1)c1ccc(-c2ccccc2)c(F)c1             TGI                     3
8  COc1cc(CNc2nc3ccccc3n2Cc2ccccc2)cc(CN2CCOCC2)c1O             TGI                  87.8

Param request: TGI | system OVCAR-5 ovarian | item Clc1ccccc1C1N2CCCCC2[C@@H]2c3[nH]c4ccccc4c3CCN12 (stereo not given in full)
52.7

---

TGI listing for selected compounds.
Test system: OVCAR-8 ovarian
Experiment: NCI tumour cell line growth inhibition, 48 h

# example entries with known answers
> print(dat)
                                   compound      test.system  recorded.measurement
1  C/C1=N\NC(=O)c2ccccc2C(=O)N/N=C(\C)c2cccc1n2.O=[N+]([O-])[O-].[Zn+2]  OVCAR-8 ovarian              > 100 µM
2  COc1ccc(C2=CC(c3ccc(Oc4ccnc5cc(Cl)ccc45)c(OC)c3)c3c(nc(OC)[nH]c3=O)N2)cc1 (centres undefined)  OVCAR-8 ovarian              > 100 µM
3      COCOc1cc(OC)c(Br)cc1C/C(=N/O)C(=O)OC  OVCAR-8 ovarian              > 100 µM
4  COc1ccc(S(=O)(=O)NC2=NCCN2C(=S)SN2CCn3c2nsc3=S)cc1OC  OVCAR-8 ovarian              > 100 µM
5  COc1cc(/C=C/C=C2\CCC/C(=C\C=C\c3ccc(O)c(OC)c3)C2=O)ccc1O  OVCAR-8 ovarian               72.3 µM

Recall and state the measured TGI for Cc1coc2c1CC1OC1(C)CCC1OC1(C)C2 (centres undefined) .
> 100 µM

Recall and state the measured TGI for COC(=O)/C(=N\N)C(C(=O)C(=O)Nc1cccc([N+](=O)[O-])c1)c1nc2ccc(C(=O)c3ccccc3)cc2[nH]c1=O (centres undefined) .
> 100 µM

Recall and state the measured TGI for CCOC(=O)CCSS(=O)(=O)C(F)(F)F .
> 100 µM

Recall and state the measured TGI for COc1cc(-c2cc(-c3nc4cc(Cl)c(Cl)cc4[nH]3)[nH]n2)cc(OC)c1OC .
7.48 µM

---

Tested on: SN12C renal
Test: NCI tumour cell line growth inhibition, 48 h
TGI listing for selected molecules.
Provide the reading as a plain figure in µM.

# example entries with known answers
> print(dat)
                           smiles.structure  property.label  recorded.measurement
1  CC(C)(C)OC(=O)N1CC(Cn2cc(C(F)(F)F)c3c(Cl)ncnc32)C1             TGI                  6.12
2    CN(C)CCNC(=O)c1cccc2ccc(-c3cccnc3)nc12             TGI                  23.1
3  [C-]#[O+].[C-]#[O+].[Ir].[O-]c1ccc2ccccc2c1N=Nc1ccccc1             TGI                  23.9

// below: TGI requested for another molecule
Recall and state the measured TGI for O=C(N[C@@H]1C=CCC[C@@H]1c1ccccc1)OCc1ccccc1 .
31.1

---

System: LOX IMVI melanoma
Assay: NCI tumour cell line growth inhibition, 48 h; in the data active = GI50 below about 0.43 µM; inactive = the rest
Result category, one only: YES for active, NO for inactive

compound	category
O=S(=O)(CC#CCCCOCC#Cc1ccccc1C#CCS(=O)(=O)c1ccccc1)c1ccccc1	NO
CSC1=Nc2c(c(C)c(-c3ccccc3)n2CCCCl)C2=NC(=O)CN12	NO
NC(=O)c1ccc2nc(-c3ccc(C4(N)CCC4)cc3)c(-c3ccccc3)n2n1	NO
C[n+]1c2cc(N)ccc2cc2ccc(N)cc21 (tested in a mixture with another compound)	YES
Fc1c[c-]c(-c2ccccn2)c(F)c1.[CH3-].[Pt+2].c1ccc([PH+](c2ccccc2)c2ccccn2)cc1	NO
COc1ccc2c(O)c(/C=C3\N=Nc4ncccc43)oc2c1C[C@H]1CCNC[C@H]1F	YES
C=CCC(N[C@@H](CO)c1ccccc1)c1ccccn1 (some centres not stated)	NO
C[C@@H]1[C@H]2[C@H](C=C3[C@@H]4CC[C@H]5Cc6nc7c(nc6C[C@]5(C)[C@H]4C[C@@H](O)[C@@]32C)C[C@@H]2CC[C@H]3C4=C[C@@H]5O[C@@]6(CC[C@](C)(CO)O6)[C@@H](C)[C@@]5(O)[C@@]4(C)[C@H](O)C[C@@H]3[C@@]2(C)C7)O[C@]12CCC(C)(C)O2	NO

Field: outcome | Entry: COc1cccc2c1nc1cccc(OC)c1[n+]2[O-]
NO

Field: outcome | Entry: CN1C(=O)N(C)C2C1NN=c1s/c(=C\c3c[nH]c4ccccc34)c(=O)n12 (configuration not stated)
YES

Field: outcome | Entry: COc1ccc2[nH]c(-c3ccccc3)c(C=C(C#N)C#N)c2c1
NO

Field: outcome | Entry: CCN1CCC2(CC1)NC(=O)c1c(c3ccc(Cl)c(Cl)c3n1C)C2C#N (configuration not stated)
NO

Field: outcome | Entry: COc1cc(C(C)(C)C)cc(OC)c1C(O)(c1c(OC)cc(C(C)(C)C)cc1OC)c1c(OC)cc(C(C)(C)C)cc1OC
YES

The measurements presented in this section are drawn from PubChem BioAssay (NCI).
